system: COLO 205 colon; assay: NCI tumour cell line growth inhibition, 48 h

molecule	TGI
CCC1(N2C(=O)c3c(F)c(F)c(F)c(F)c3C2=O)C(=O)NC(=O)N(c2ccccc2)C1=O (centres undefined)	6.78 µM
CNC(=O)OCC1=C(COC(=O)NC)CN(c2ccccc2)C1	> 100 µM
CCCCC(=C=C1CCCCC1O)C1CCCN1C(=O)OC(C)(C)C (centres undefined)	43.8 µM
CSc1s[s+]c(SC)c1-c1ccccc1	32.4 µM
Fc1nc(F)nc(-c2c3ccccc3c3n2CCS3)n1	> 100 µM
CCCCCCCCCCCCCCCC(=O)OCC1OC(n2ccc(N)nc2=O)C(O)C1O (centres undefined)	> 100 µM
Cc1c(-c2coc(-c3ccc(Cl)cc3)n2)c(=O)n(-c2ccccc2)n1C	> 100 µM
O=c1[nH]c2cc(O)ccc2n2cc3c(F)cccc3c12	> 100 µM
N#CC(=C=[N-])[n+]1ccc(Cl)cc1	32.9 µM
CC1=CC(c2ccccc2)n2c(nc3cc4ccccc4cc32)N1 (centres undefined)	> 100 µM
CC(=O)C1=C(O)/C(=C\c2ccco2)OC1=O	> 10 µM
CCOP(=O)(OCC)C(F)(F)CC1CCCCC1	> 10 µM
CN1CCN(C(=S)SCN2C(=O)c3ccccc3S2(=O)=O)CC1	21.3 µM
COc1ccc(C[C@H]2COC(=O)[C@@H]2Cc2cc(OC)c(OC)c(OC)c2)cc1OC	> 100 µM

###

system: HT29 colon; test: NCI tumour cell line growth inhibition, 48 h
property_measured: TGI

compound	property_measured	observed
Nc1ccc2c(c1)CN1C(=O)c3ccccc3C1=N2	TGI	> 125 µM
COc1ccccc1NC(=O)C(=O)C1C(=O)Nc2ccccc2S1=O (stereo not drawn)	TGI	> 100 µM
CN1C(=O)[C@@]2(C=CC3(CC2)OCCO3)c2ccccc21	TGI	> 50 µM

###

system: HOP-62 NSCLC; test: NCI tumour cell line growth inhibition, 48 h
Quick list: TGI per entry.

compound	target_under_test	TGI
COC(=O)c1ccc(OCc2ccc3nc(-c4ccccc4)c(Cl)nc3c2)cc1	HOP-62 NSCLC	> 100 µM
O=c1[nH]c2cc(O)ccc2n2cc3c(F)cccc3c12	HOP-62 NSCLC	> 100 µM
COc1ncnc2c(-c3ccco3)cn(COCc3ccccc3)c12	HOP-62 NSCLC	> 50 µM
CCC1(O)CN(CCOC)[C@H]2C[C@@H]1C(=O)c1[nH]c3ccccc3c12 (stereo not given in full)	HOP-62 NSCLC	> 100 µM
CCN1CC2(C)CC[C@@H](OC)C34[C@@H]2[C@H](OC(C)=O)C2(OCO[C@@]25C[C@H](OC)C2C[C@]3(O)[C@@H]5[C@H]2O)[C@H]14	HOP-62 NSCLC	> 100 µM

###

tested on: HCC-2998 colon; assay: NCI tumour cell line growth inhibition, 48 h
Quick list: TGI per entry.

compound	target_under_test	TGI
Nc1ccc2c(c1)CN1C(=O)c3ccccc3C1=N2	HCC-2998 colon	> 125 µM
C=CC1(CCC(Br)C(C)(C)Cl)CO1 (stereo not drawn)	HCC-2998 colon	> 10 µM
CN1c2ccccc2C(=O)Nc2cnc(Cl)nc21	HCC-2998 colon	> 100 µM
N#CC1(C#N)C2C=CC(C3CCC=C32)C1(C#N)C#N (stereo not drawn)	HCC-2998 colon	> 10 µM
COc1ccc(N(Cc2cc(OC)c(OC)c(OC)c2)C2OC(=O)c3ccccc32)cc1 (stereo not drawn)	HCC-2998 colon	> 28.5 µM
Cc1cc(S(=O)(=O)NC(=NCC(=O)NN)NN)c(S)cc1Cl	HCC-2998 colon	> 10 µM
C/C(=N\NC(=S)N1CCC(C2CCN(C(=S)N/N=C(\C)c3ccccn3)CC2)CC1)c1ccccn1	HCC-2998 colon	> 100 µM
O=C(NCCCCl)c1c(O)c2ccccc2[nH]c1=O	HCC-2998 colon	> 100 µM

These entries and their values trace back to PubChem BioAssay (NCI).
